Every entry's value here was drawn from paper PMC9706920.

biological target: Aβ(1–42) aggregates (Homo sapiens, UniProt P05067); experiment: ThT fluorescence Aβ(1–42) disaggregation assay; details: pre-aggregated Aβ(1–42) 25 μM, 3 + 3 days, 37°C
Sequence (P05067 672-713 limits assumed): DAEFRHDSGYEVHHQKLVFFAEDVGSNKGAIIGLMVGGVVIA
reported-property: EC50

Ask: # return recorded EC50 for entry CC(C)(C)c1ccc(OCC(O)CN2CCCCC2)cc1.Cl (stereo not shown) [YIAD008]
Result: 360 µM

Ask: Given the compound CC(C)(C)c1ccc(OCC(O)CN2CCCC2)cc1.Cl (stereo not shown) [YIAD010] , write its reported EC50.
Result: 138 µM

Ask: Complete the entry with EC50 for CCC(C)(C)c1ccc(OCC(O)CN2CCCC2)c(C(C)(C)CC)c1.Cl (stereo not shown) [YIAD002]
Result: 16.9 µM

Ask: Answer with reported EC50 of CCC(C)(C)c1ccc(OCC(O)CN2CCOCC2)c(C(C)(C)CC)c1.Cl (stereo not shown) [YIAD001]
Result: 91.8 µM
